Target: 5-hydroxytryptamine receptor 1D (Homo sapiens) (UniProt P28221)
Sequence (P28221 whole entry): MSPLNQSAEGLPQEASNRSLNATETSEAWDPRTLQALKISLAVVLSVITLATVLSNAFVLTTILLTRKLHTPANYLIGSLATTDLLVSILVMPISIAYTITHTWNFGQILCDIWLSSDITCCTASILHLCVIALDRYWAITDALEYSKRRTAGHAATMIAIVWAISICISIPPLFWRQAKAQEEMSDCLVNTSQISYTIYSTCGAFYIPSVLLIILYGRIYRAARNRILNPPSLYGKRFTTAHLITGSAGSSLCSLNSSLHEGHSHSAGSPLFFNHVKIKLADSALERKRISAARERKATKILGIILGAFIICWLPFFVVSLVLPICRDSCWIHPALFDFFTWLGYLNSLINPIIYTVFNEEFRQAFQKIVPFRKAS
Experiment: The compound was tested for binding affinity against 5-HT1D receptor
Settings: Oryctolagus cuniculus
Threshold-based label: p[A50] under 7 gives True, p[A50] not under 7 gives False.

INSERT INTO measurements (compound, label_class) VALUES
  ('O=C(c1ccc(F)cc1)C1CCN(CCn2c(=O)[nH]c3ccccc3c2=O)CC1', 'True'),
  ('NCCc1c[nH]c2ccc(CC3NC(=O)N(CCc4ccccc4)C3=O)cc12 (stereo not given)', 'True'),
  ('CN(C)CCc1c[nH]c2ccc(CC3NC(=O)N(Cc4cccc(NC(=O)c5ccccc5)c4)C3=O)cc12 (stereo not given)', 'True'),
  ('CN(C)CCc1c[nH]c2ccc(O)cc12', 'False'),
  ('CNC(=O)c1cccc(CN2C(=O)NC(Cc3ccc4[nH]cc(CCN)c4c3)C2=O)c1 (stereo not given)', 'True'),
  ('NCCc1c[nH]c2ccc(C(N)=O)cc12', 'False'),
  ('CCC(CO)NC(=O)[C@H]1C=C2c3cccc4c3c(cn4C)CC2N(C)C1 (stereo not given in full)', 'True'),
  ('NCCc1c[nH]c2ccc(CC3NC(=O)N(Cc4cccc(NC(=O)c5ccccc5)c4)C3=O)cc12 (stereo not given)', 'False'),
  ('CN(C)CCc1c[nH]c2ccc(CCN3C(=O)N[C@@H](Cc4ccc(NS(C)(=O)=O)cc4)C3=O)cc12', 'False'),
  ('CN(C)CCc1c[nH]c2ccc(CC3NC(=O)N(Cc4ccc(Oc5ccccc5)cc4)C3=O)cc12 (stereo not given)', 'False'),
  ('NCCc1c[nH]c2ccc(CC3NC(=O)N(Cc4cccc(Oc5ccccc5)c4)C3=O)cc12 (stereo not given)', 'False'),
  ('CNS(=O)(=O)Cc1ccc2[nH]cc(CCN(C)C)c2c1', 'True'),
  ('NCCc1c[nH]c2ccc(CC3NC(=O)N(Cc4ccccc4)C3=O)cc12 (stereo not given)', 'True');

* * *

Biological target: 5-hydroxytryptamine receptor 1D (Homo sapiens) (UniProt P28221)
Experiment: The compound was tested for intrinsic activity against 5-HT1D receptor
Details: Oryctolagus cuniculus
Threshold-based label: Intrinsic activity under 0.8 gives fulfilled, Intrinsic activity not under 0.8 gives not fulfilled.

INSERT INTO assay_data (molecule, label_class) VALUES
  ('CN(C)CCc1c[nH]c2ccc(CC3NC(=O)N(CCc4ccccc4)C3=O)cc12 (stereo not given)', 'fulfilled'),
  ('NCCc1c[nH]c2ccc(CC3NC(=O)N(Cc4ccc(C(=O)Nc5ccccc5)cc4)C3=O)cc12 (stereo not given)', 'fulfilled'),
  ('CC(=O)Nc1cccc(CC2NC(=O)N(CCc3ccc4[nH]cc(CCN(C)C)c4c3)C2=O)c1 (stereo not given)', 'fulfilled'),
  ('NCCc1c[nH]c2ccc(CC3NC(=O)N(Cc4cccc(C(=O)Nc5ccccc5)c4)C3=O)cc12 (stereo not given)', 'fulfilled'),
  ('CN(C)CCc1c[nH]c2ccc(CCN3C(=O)CNC3=O)cc12', 'fulfilled'),
  ('CN(C)CCc1c[nH]c2ccc(CC3NC(=O)N(Cc4cccc(NC(=O)c5ccccc5)c4)C3=O)cc12 (stereo not given)', 'fulfilled'),
  ('C[C@@H](CO)NC(=O)[C@@H]1C=C2c3cccc4[nH]cc(c34)C[C@H]2N(C)C1', 'not fulfilled'),
  ('CN(C)CCc1c[nH]c2ccc(C[C@H]3COC(=O)N3)cc12', 'fulfilled'),
  ('CN1C(=O)N(Cc2ccccc2)C(=O)C1Cc1ccc2[nH]cc(CCN)c2c1 (stereo not given)', 'not fulfilled'),
  ('CNC(=O)c1cccc(CN2C(=O)NC(Cc3ccc4[nH]cc(CCN)c4c3)C2=O)c1 (stereo not given)', 'fulfilled'),
  ('CN1C(=O)NC[C@@H]1Cc1ccc2[nH]cc(CCN)c2c1', 'not fulfilled'),
  ('CC(=O)Nc1cccc(CC2NC(=O)N(CCc3ccc4[nH]cc(CCN)c4c3)C2=O)c1 (stereo not given)', 'fulfilled'),
  ('CS(=O)(=O)Nc1ccc(C[C@H]2NC(=O)N(CCc3ccc4[nH]cc(CCN)c4c3)C2=O)cc1', 'fulfilled'),
  ('CCCNC(=O)c1cccc(CN2C(=O)NC(Cc3ccc4[nH]cc(CCN)c4c3)C2=O)c1 (stereo not given)', 'not fulfilled'),
  ('NCCc1c[nH]c2ccc(CC3NC(=O)N(Cc4ccccc4)C3=O)cc12 (stereo not given)', 'fulfilled'),
  ('NCCc1c[nH]c2ccc(CCC3NC(=O)N(Cc4ccccc4)C3=O)cc12 (stereo not given)', 'not fulfilled'),
  ('Cn1c(Cc2ccc3[nH]cc(CCN)c3c2)cn(Cc2ccccc2)c1=O', 'not fulfilled'),
  ('CN(C)CCc1c[nH]c2ccc(C[C@H]3CNC(=O)N3C)cc12', 'not fulfilled');
